Source listed as patent US11344510B2.

test: RLM stability (Low Activity)
Format: in vitro ADME, Sprague Dawley rats
run.parameters: male, Sprague Dawley, rat, liver microsomes, pH 7.4, Condition 1 (Low Activity), 0.50 mg protein/mL

- compound: "CC(C)N[C@@]1(c2ccccc2)CCCCC1=O [Compound 28R]"
  unit.tag: "µL/min/mg"
  comparator: "="
  microsomal CLint at 1 μM: 52.6
- compound: "Cc1ccc(C2(N)CCCCC2=O)cc1 (racemic)"
  unit.tag: "µL/min/mg"
  comparator: "="
  microsomal CLint at 1 μM: 380
- compound: "CNC1(c2ccc(C)cc2)CCCCC1=O (racemic)"
  unit.tag: "µL/min/mg"
  comparator: "="
  microsomal CLint at 1 μM: 417
- compound: "CC1CCN1C1(c2ccccc2)CCCCC1=O (stereo not drawn) [Compound 128mix]"
  unit.tag: "µL/min/mg"
  comparator: "="
  microsomal CLint at 1 μM: 50.6
- compound: "Cc1ccccc1[C@@]1(N)CCCCC1=O [Compound 114S, (S)-2-amino-2-(o-tolyl)cyclohexan-1-one]"
  unit.tag: "µL/min/mg"
  comparator: "="
  microsomal CLint at 1 μM: 54.5
- compound: "NC1(c2ccc(F)cc2)CCCCC1=O (racemic)"
  unit.tag: "µL/min/mg"
  comparator: "<"
  microsomal CLint at 1 μM: 9.6
- compound: "CC1CN(C2(c3ccccc3)CCCCC2=O)C1 (racemic)"
  unit.tag: "µL/min/mg"
  comparator: "="
  microsomal CLint at 1 μM: 57.5
- compound: "O=C1CCCCC1(c1ccccc1)N1CCCC1 (racemic)"
  unit.tag: "µL/min/mg"
  comparator: "="
  microsomal CLint at 1 μM: 39.1
- compound: "CC(C)N[C@]1(c2ccccc2)CCCCC1=O [Compound 28S]"
  unit.tag: "µL/min/mg"
  comparator: "="
  microsomal CLint at 1 μM: 73.4
- compound: "COCCN[C@@]1(c2ccccc2)CCCCC1=O [Compound 29R]"
  unit.tag: "µL/min/mg"
  comparator: "="
  microsomal CLint at 1 μM: 43
- compound: "CNC1(c2cccc(C)c2)CCCCC1=O (racemic)"
  unit.tag: "µL/min/mg"
  comparator: "="
  microsomal CLint at 1 μM: 390
- compound: "Cc1cccc(C2(N)CCCCC2=O)c1 (racemic)"
  unit.tag: "µL/min/mg"
  comparator: "="
  microsomal CLint at 1 μM: 192
